- EXPERIMENTAL_SYSTEM: FAD-linked sulfhydryl oxidase ALR (Homo sapiens) (UniProt P55789)
- Sequence (P55789 whole entry, looked up): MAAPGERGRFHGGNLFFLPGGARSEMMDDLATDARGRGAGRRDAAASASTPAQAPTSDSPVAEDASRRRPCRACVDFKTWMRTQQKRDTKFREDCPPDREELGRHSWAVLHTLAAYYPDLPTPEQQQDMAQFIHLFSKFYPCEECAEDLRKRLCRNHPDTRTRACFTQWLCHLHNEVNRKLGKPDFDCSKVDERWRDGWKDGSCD
- PROCEDURE_DETAILS: ALR-catalysed DTT oxidation blockers – biochemical, H2O2 detection, HRP-luminol luminescence, single point, primary screen (AID 485317)
- APPLIED_CONDITIONS: purified ALR, concentration not given here
Out of some 290,000 compounds screened, about 11,000 (3.8%) were called active.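 Rule for the calls: active = mean replicate inhibition above about 79%, with every replicate also reaching it (limit read from the data); inconclusive = only one of the two criteria met; inactive = mean below limit and not every replicate reaching it.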 Only a selection was taken, and actives are over-represented in it overall.
Hi there, use one of these labels in your reply, thanks! class 1 (active), class 0 (inactive)

[Q] Please indicate how the test categorized `Cc1ccc(N=C2NC(=O)/C(=C/C=C/c3ccco3)S2)cc1C` .
[A] class 1

[Q] Per the assay record, what outcome was assigned to `O=C1CSC(=S)N1c1ccc(Cl)c(Cl)c1` ?
[A] class 0

[Q] Record request — test call for Cc1ccc(N2CC(C(=O)Nc3cc(Cl)ccc3-n3cncn3)CC2=O)cc1 (stereo not drawn)
[A] class 0

[Q] Recorded test outcome, item `COc1ccc(-c2csc(Cc3nc(O)cs3)n2)cc1`
[A] class 1

[Q] What did this assay record as the result for `Cc1cc(SCc2c(F)cccc2Cl)nc(=O)[nH]1` ?
[A] class 0

[Q] Could you please tell me the result logged for `Cc1ccc(S(=O)(=O)NCC(=O)NNC(=O)c2ccc(Br)cc2)cc1C` in this assay?
[A] class 0

[Q] Hey, what did the test say about COc1ccc(-c2csc(NC3OC(=O)c4ccccc43)n2)cc1 (stereo not drawn) ?
[A] class 0

[Q] Answer briefly: the call reported for CC1CCc2[nH]c3ccc(C(=O)N(C)CC(=O)Nc4cccc(F)c4)cc3c2C1 (stereo not drawn) in this assay.
[A] class 0

[Q] Please indicate how the test categorized `COc1cc(N2C(=O)CSC2=S)cc(OC)c1OC` .
[A] class 0

[Q] What classification did `O=C(CSc1ccc(-c2ccco2)nn1)NCc1ccc2c(c1)OCO2` end up with in this test?
[A] class 0

[Q] I'd appreciate the recorded outcome for `COC(=O)C1=C(C)N(c2ccc(Br)cc2)C(=O)/C1=C\c1ccco1` from this test.
[A] class 0

[Q] Dear colleague, could you share the recorded outcome for `COc1ccc(NC(=O)CSc2ccc(-c3ccco3)nn2)c(OC)c1` when you have a moment?
[A] class 0

[Q] Please share the test call associated with `O=C1CSC(=S)N1c1ccc(O)cc1` .
[A] class 1

[Q] Per the assay record, what outcome was assigned to COc1ccc(Cl)cc1NS(=O)(=O)c1cccc(C(=O)NC2CCC(O)CC2)c1 (stereo not drawn) ?
[A] class 0

[Q] Fill in: this test's call for `O=C(COC(=O)c1cc(S(=O)(=O)N2CCOCC2)ccc1Cl)NCCc1ccccc1` is ___
[A] class 0

[Q] I'd appreciate the recorded outcome for `Cc1cc(N2CCCC2)ccc1NC(=O)COc1ccc(Cl)cc1` from this test.
[A] class 0

[Q] Dear colleague, could you share the recorded outcome for `c1nnc2c3c4c(sc3ncn12)CCC4` when you have a moment?
[A] class 0

[Q] For `COc1ccc(-c2cnc(SCCNC(=O)c3ccc4c(c3)OCO4)[nH]2)cc1` , which call appears in the assay record?
[A] class 0

----------
Answer each item with its documented inhibition.
- EXPERIMENTAL_SYSTEM: FAD-linked sulfhydryl oxidase ALR (Homo sapiens)
- PROCEDURE_DETAILS: ALR-catalysed DTT oxidation blockers – biochemical, H2O2 detection, HRP-luminol luminescence, single point, primary screen (AID 485317)
- APPLIED_CONDITIONS: purified ALR, hits give high values, concentration not given here
The campaign covered roughly 290,000 compounds. About 11,000 (3.8%) were called active. This excerpt belongs to a sample that is enriched for actives.
API: value field is a number in %; no unit string.

The measured inhibition associated with `CCOc1ccc(N=Cc2c(O)n(-c3cccc(C)n3)c(=O)c3ccccc23)cc1` reads -11.1

Entry `Cc1cc(C)nc(S/C=C/C(=O)c2ccccc2)n1` — recorded inhibition = 18.2

# inhibition of `Oc1c(C=Nc2cccc3nsnc23)ccc2ccccc12` = 25.2

What the record says about `S=c1[nH]nc(CSCc2ccc(Cl)cc2Cl)n1-c1ccccc1` : inhibition is 1.91

Form: compound = `O=C(CCCN=C1NS(=O)(=O)c2ccccc21)OCC(=O)c1ccc(F)c(F)c1` ; inhibition = -7.91
